# Tested on: NCI/ADR-RES ovarian
# protocolDetails: NCI tumour cell line growth inhibition, 48 h
quantityKind: GI50

Cc1ccc(C(=O)c2oc3ccc4c(C)cc(=O)oc4c3c2C)cc1 = 10.2 µM
O=C(Oc1ccc(O)c2c(=O)n3c(cc12)[nH]c1ccccc13)c1ccccc1 = 18.7 µM

Please look at the following compound next.
Request: Query (compound): CN1CCN(Cc2ccc(NC(=O)c3cncc(C#Cc4cnc(N)c5ccc(F)cc45)c3)cc2C(F)(F)F)CC1 ; field requested: GI50
Result: 3.22 µM

====

# System: HT29 colon
# protocolDetails: NCI tumour cell line growth inhibition, 48 h
quantityKind: TGI

COc1ccc2c(c1)C(=O)CC(N)C2 (stereo unspecified) = > 100 µM
N#CCc1nc(C#N)c(N)o1 = > 100 µM
O=C(O)c1ccc(Nc2nc3cc(C(F)(F)F)ccc3nc2C(=O)O)cc1 = > 100 µM
COc1cc(-c2cc(=O)c3cc4c(cc3[nH]2)OCO4)cc(OC)c1OC = > 100 µM
O=C(/C=C/c1ccc([N+](=O)[O-])cc1)c1nc2ccccc2[nH]1 = > 100 µM

Request: Param item = Cc1nc(N)sc1C(=O)/C=C/c1ccc(/C=C/C(=O)c2sc(NC(=O)CCCCCCCCC(=O)Nc3nc(C)c(C(=O)/C=C/c4ccc(/C=C/C(=O)c5sc(N)nc5C)cc4)s3)nc2C)cc1 ; retrieve measured TGI.
Result: > 100 µM

====

# Test system: A498 renal
# protocolDetails: NCI tumour cell line growth inhibition, 48 h
Measured TGI accompanies every entry in the list below.

Example entries and their recorded answers appear below.
CC[N+](C)(CC)CCN1C(=O)c2ccccc2S1(=O)=O = > 100 µM
N#CC1=CNc2sccc2S1(=O)=O = > 100 µM
CCCCC#COP(=O)(OCC)OCC = > 100 µM
CC(=O)NC(CCCCNC(=O)OCc1ccccc1)C(=O)NCc1ccccc1 (stereo not drawn) = > 100 µM

Request: Fill blank: measured TGI of the compound CC(=O)O[C@H]1C(N(C)C(=O)c2ccccc2)CC[C@]2(C)C3CC[C@@]4(C)C(CC(O)[C@@H]4C(C)N(C)C)[C@@H]3CCC12 (stereo partly drawn) is ____.
Result: > 100 µM

Request: // same read-out, input: Cc1cc(S(=O)(=O)Nc2nc(N)nc(N3N=CCC3C)n2)c(S)cc1Cl (stereo not drawn)
Result: > 10 µM

Request: // repeat for NC(N)=N/N=C/c1nc2sccn2c1[N+](=O)[O-] and report
Result: > 100 µM

Request: Next up: COc1ccc(-c2c(C#N)c(-c3ccccc3)n(NS(=O)(=O)c3ccccc3)c(=O)c2C#N)cc1
Result: > 100 µM

Request: Item: Cc1cc(/C=C2\SC(=Nc3ccccc3)N(C3CCCC3)C2=O)c(C)n1-c1ccc(Cl)cc1
Result: > 100 µM

Request: Queued: O=C(O)c1ccccc1/C=N\NC1=NCCCCN1
Result: > 100 µM

Request: And what about the compound O=c1oc2ccccc2c(O)c1/C=N\c1nc(-c2ccccc2)cs1 ?
Result: > 100 µM

Request: Please give the result for OC1OC(c2ccco2)C(F)(F)C(F)(F)C1(F)F (stereo not drawn) too.
Result: > 100 µM

====

# Test system: TK-10 renal
# protocolDetails: NCI tumour cell line growth inhibition, 48 h
quantityKind: TGI

Some compounds with known TGI results, for comparison:
O=C(Nc1ccccc1)c1ccc(Cl)c([N+](=O)[O-])c1 = > 100 µM
C/C=C/[C@H]1O[C@@](OC)([C@@H](C)[C@H](O)[C@H](C)[C@H]2OC(=O)/C(OC)=C/C(C)=C/[C@@H](C)[C@@H](O)[C@@H](C)[C@@H](O)[C@H](C)C/C(C)=C/C=C/[C@@H]2OC)CC(OC2CC(O)C(OC(N)=O)C(C)O2)[C@@H]1C (stereo partly specified) = 23.3 µM
CC1=C2C(O)C(C(C)CO)C(O)CC2(C)C(O)CC1 (stereo unspecified) = > 100 µM
Nc1nc(-c2cccc([N+](=O)[O-])c2)c(Br)c(=O)[nH]1 = > 100 µM
CC[N+](C)(CC)CCN1C(=O)c2ccccc2S1(=O)=O = > 100 µM

Okay, next one:
Request: Returns the measured TGI for the input compound. Input: CSCCC(NC(=O)OC(C)(C)C)C(=O)NCCNc1ccc(NCCNC(=O)C(CCSC)NC(=O)OC(C)(C)C)c2c1C(=O)c1ccccc1C2=O (stereo unspecified)
Result: 15.1 µM

====

# System: SW-620 colon
# protocolDetails: NCI tumour cell line growth inhibition, 48 h
Collected TGI values appear next to each entry.

Cc1[nH]c(-c2ccccc2)c(-c2ccc(Cl)cc2)c1C(=O)ONC(=O)c1ccccc1 = 31.7 µM
O=C1C=C(c2c(O)ccc3ccccc23)c2ccccc2C1=O = 5.21 µM
Cc1nc(N)sc1C(=O)/C=C/c1ccc(/C=C/C(=O)c2sc(NC(=O)CCCCCCCCC(=O)Nc3nc(C)c(C(=O)/C=C/c4ccc(/C=C/C(=O)c5sc(N)nc5C)cc4)s3)nc2C)cc1 = > 100 µM
CC(C)(C)OC(=O)N1C(OP(=O)(Oc2ccccc2)Oc2ccccc2)=COc2cccnc21 = > 100 µM

Could you now consider this next molecule?
Request: Param item = NC(N)=N/N=C(/c1nc2ccc([N+](=O)[O-])cc2[nH]c1=O)C(O)c1ccco1 (stereo not given) ; retrieve measured TGI.
Result: > 100 µM

====

# Test system: M14 melanoma
# protocolDetails: NCI tumour cell line growth inhibition, 48 h
quantityKind: TGI (µM)
API: value field is a number in µM; no unit string.

Request: Entry under review: CSCCC(NC(=O)OC(C)(C)C)C(=O)NCCNc1ccc(NCCNC(=O)C(CCSC)NC(=O)OC(C)(C)C)c2c1C(=O)c1ccccc1C2=O (stereo not drawn) . Reported TGI?
Result: 14.1

====

As shown below, each of these compounds has a reported TGI value.
# Tested on: UACC-62 melanoma
# protocolDetails: NCI tumour cell line growth inhibition, 48 h

Worked examples, 5 compounds total:
O=C(Nc1ccccc1C(F)(F)F)c1cccc(NC2=C(Cl)C(=O)N(Cc3ccccc3)C2=O)c1 = 52.7 µM
CC(=O)NC1=N/C(=C/c2cc([N+](=O)[O-])ccc2O)CN1C = > 100 µM
Cc1nc2ccc(C(F)(F)F)cc2nc1Nc1ccc(Cl)c(Cl)c1 = 29.1 µM
Cc1c(CCCl)c(=O)n2c([nH]c3ccccc32)c1C#N = 2.75 µM
CCOC(=O)c1sc2c(c1OC(=O)c1ccccc1)c(=O)n(-c1ccccc1)c(=S)n2-c1ccccc1 = 52.3 µM

Request: Fill in: TGI of CCCCSc1n/c(=C\c2ccc(N(C)C)cc2)c2nnnn12 is ___
Result: > 100 µM

Request: // next record C=CCCCCCCCCCCCC1CCC(CC)N1 (stereo unspecified)
Result: 29.4 µM

Request: And for CC1(C)C2CC(c3ccncc3)ON2C(C)(C)N1O (stereo unspecified) ?
Result: > 100 µM

Request: // repeat for NC(=O)COc1ccccc1 and report
Result: > 100 µM

Request: One more compound: Cc1cc(S(=O)(=O)Nc2nnc3cc(C(F)(F)F)cc(C)n23)c(S)cc1Cl
Result: > 100 µM

Request: Item: O=C1[C@@H]2Cc3c([nH]c4ccccc34)C(C3CCCCC3)N2C(=O)[C@@H]2CCCN12 (stereo partly specified)
Result: 49 µM

====

# Tested on: DLD-1 colon
# protocolDetails: NCI tumour cell line growth inhibition, 48 h
quantityKind: TGI

CC(=O)N/C(=C\c1ccc(/C=C(\NC(C)=O)c2nc3ccc(Cl)cc3[nH]2)cc1)c1nc2ccccc2[nH]1 = > 100 µM

Request: Sample CC(=O)O[C@H]1C(N(C)C(=O)c2ccccc2)CC[C@]2(C)C3CC[C@@]4(C)C(CC(O)[C@@H]4C(C)N(C)C)[C@@H]3CCC12 (stereo partly drawn) — what was its TGI?
Result: > 100 µM

Request: Input CC(=O)OCC1OC(n2c(-c3ccccc3)cc(-c3ccco3)c(C#N)c2=O)C(OC(C)=O)C(OC(C)=O)C1OC(C)=O (stereo not drawn)
Result: > 100 µM

====

# Tested on: SNB-19 CNS
# protocolDetails: NCI tumour cell line growth inhibition, 48 h; in the data active = GI50 below about 0.43 µM; inactive = the rest
Pick one and only one: TRUE for active, FALSE for inactive

CN(C)CCNc1nc2ccccc2c2c1c1c(n2Cc2ccccc2)-c2ccccc2C1=O = FALSE
COc1ccc2c(c1)sc1nc(-c3ccccc3)c(-c3ccsc3)n12 = FALSE

Request: What is the recorded call for this molecule in the test? CC1(C)C=CC[C@]2(C)[C@H]3CC[C@@H]4[C@H]5[C@H](C(=O)/C=C/c6cccnc6)CC[C@]5(CO)CC[C@@]4(C)[C@]3(C)CC[C@@H]12
Result: FALSE

Request: What do we get for CC[N+](CC)=c1ccc2nc3c(cc(N)c4ccccc43)oc-2c1 ?
Result: TRUE

Request: Next record, please: CCCCCCC/C=C/[C@H]1O[C@]23C(=O)C[C@@]4(C[C@@H](OC5OC(CO)C(O)C(O)C5O)C[C@@H]4[C@H]2C=C1C)OC3=O (some centres not stated)
Result: FALSE

Request: Field entry: N#CCc1nc(C#N)c(N)o1
Result: FALSE

Request: How about this molecule: Nc1c(C(=O)c2ccccc2)sc2nc(-c3cccs3)ccc12
Result: FALSE

Request: Please do the same for COc1cc([C@H](C)c2ccc3ccccc3c2)cc(OC)c1OC as well.
Result: FALSE
